experimentalTarget: Protein arginine N-methyltransferase 3 (Homo sapiens)
Sequence (O60678 whole entry): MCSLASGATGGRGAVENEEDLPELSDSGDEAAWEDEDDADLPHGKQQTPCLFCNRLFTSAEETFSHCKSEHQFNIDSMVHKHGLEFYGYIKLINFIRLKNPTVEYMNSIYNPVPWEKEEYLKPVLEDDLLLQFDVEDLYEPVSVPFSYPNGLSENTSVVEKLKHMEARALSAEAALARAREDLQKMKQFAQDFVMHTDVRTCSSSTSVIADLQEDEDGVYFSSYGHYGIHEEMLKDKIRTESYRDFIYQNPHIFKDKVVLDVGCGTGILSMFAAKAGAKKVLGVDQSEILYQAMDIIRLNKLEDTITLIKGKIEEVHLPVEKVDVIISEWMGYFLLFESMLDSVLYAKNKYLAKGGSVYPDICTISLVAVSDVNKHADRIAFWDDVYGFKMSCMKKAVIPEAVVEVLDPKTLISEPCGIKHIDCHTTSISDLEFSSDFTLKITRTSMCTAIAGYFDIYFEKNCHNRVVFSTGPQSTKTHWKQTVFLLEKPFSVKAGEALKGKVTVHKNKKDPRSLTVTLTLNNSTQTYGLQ
experimentalProtocol: Selectivity interaction (Scintillation proximity assay) EUB0000261b PRMT3
quantityMeasured: IC50

• CC(C)Oc1ccc(-c2c[nH]cc2CN(C)CCO)cc1 = > 20 µM

###

experimentalTarget: Cannabinoid receptor 1 (Homo sapiens, UniProt P21554)
experimentalProtocol: Selectivity interaction (Cannabinoid CB1 calcium flux assay, agonist and antagonist mode ) EUB0000877a CNR1
quantityMeasured: IC50

- CCC(=O)N1CC[C@H](Nc2ncnc3c2CN(c2cnc(OC)c(C(F)(F)F)c2)CC3)C1: > 30 µM

###

experimentalTarget: Bromodomain-containing protein 9 (Homo sapiens)
experimentalProtocol: Selectivity interaction (BROMOscan) EUB0001074a BRD9
quantityMeasured: IC50

* CCc1cc2cc(NS(=O)(=O)c3ccc(C#N)cc3)ccc2n(CC)c1=O | > 100 µM

###

experimentalTarget: Dual specificity protein kinase CLK1 (Homo sapiens, UniProt P49759)
pIC50: −log10 of the molar value.
quantityMeasured: pIC50

- CN(c1ncccc1CNc1ccnc(-c2nc3c(F)c(Cl)ccc3[nH]2)n1)S(C)(=O)=O: < 5.00

###

experimentalTarget: Cyclin-dependent kinase 2/cyclin E (Homo sapiens, UniProt P24941)
experimentalProtocol: Selectivity interaction (Enzymatic assay (Reaction Biology)) EUB0001632a CDK2
Assay type: protein-complex assay
quantityMeasured: IC50

- Cn1cc(-n2cnc3c(NCc4nc5cc(Cl)c(Cl)cc5[nH]4)nc(N4CCOCC4)nc32)cn1: > 10 µM

###

experimentalTarget: Adenosine receptor A2a (Homo sapiens)
experimentalProtocol: Selectivity interaction (Adenosine 2A receptor binding assay, human recombinant ) EUB0000877a ADORA2A
quantityMeasured: IC50

• CCC(=O)N1CC[C@H](Nc2ncnc3c2CN(c2cnc(OC)c(C(F)(F)F)c2)CC3)C1 = > 30 µM

###

experimentalTarget: Vascular endothelial growth factor receptor 2 (Homo sapiens)
experimentalProtocol: Selectivity interaction (NovaScreen assay) EUB0001542aTs KDR
pIC50: −log10 of the molar value.
quantityMeasured: pIC50

• Cn1cc(Nc2nccc(N3CC4CCC(C3)N4C(=O)[C@@H]3CC3(F)F)n2)cn1 = < 4.52

###

experimentalProtocol: Selectivity interaction (Kinase panel (cellular selectivity, Bright-Glo proliferation assay in BaF3 Cell line, Promega)) EUB0000678a KDR
pIC50: −log10 of the molar value.
quantityMeasured: pIC50

- CCN1CCN(c2ccc(Nc3cc(N(C)C(=O)Nc4c(Cl)c(OC)cc(OC)c4Cl)ncn3)cc2)CC1: 6.03

###

experimentalTarget: Phosphatidylinositol 3-kinase catalytic subunit type 3 (Homo sapiens, UniProt Q8NEB9)
Sequence (Q8NEB9 whole entry): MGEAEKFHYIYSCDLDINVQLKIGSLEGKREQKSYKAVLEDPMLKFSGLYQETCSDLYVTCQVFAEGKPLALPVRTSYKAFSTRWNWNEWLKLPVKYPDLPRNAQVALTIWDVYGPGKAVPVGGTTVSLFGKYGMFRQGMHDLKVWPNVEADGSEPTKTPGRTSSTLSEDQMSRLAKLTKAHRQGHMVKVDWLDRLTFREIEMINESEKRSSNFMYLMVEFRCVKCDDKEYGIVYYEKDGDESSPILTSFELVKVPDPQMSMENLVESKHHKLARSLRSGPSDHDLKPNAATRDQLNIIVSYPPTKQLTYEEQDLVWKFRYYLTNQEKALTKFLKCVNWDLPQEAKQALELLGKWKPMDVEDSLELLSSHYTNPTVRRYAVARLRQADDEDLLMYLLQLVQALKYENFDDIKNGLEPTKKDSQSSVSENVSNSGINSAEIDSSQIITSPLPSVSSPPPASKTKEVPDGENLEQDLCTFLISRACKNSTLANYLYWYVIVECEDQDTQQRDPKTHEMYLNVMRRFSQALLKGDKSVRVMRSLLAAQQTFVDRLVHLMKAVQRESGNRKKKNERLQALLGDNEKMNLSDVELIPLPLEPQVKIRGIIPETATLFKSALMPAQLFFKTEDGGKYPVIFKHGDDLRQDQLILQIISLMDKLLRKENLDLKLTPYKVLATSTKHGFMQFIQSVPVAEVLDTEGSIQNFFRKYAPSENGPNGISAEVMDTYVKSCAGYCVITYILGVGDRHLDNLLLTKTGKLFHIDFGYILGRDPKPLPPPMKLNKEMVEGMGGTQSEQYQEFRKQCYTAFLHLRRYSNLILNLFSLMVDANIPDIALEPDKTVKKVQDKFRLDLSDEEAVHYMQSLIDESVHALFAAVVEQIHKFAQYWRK
experimentalProtocol: Selectivity interaction (Kinase panel (ADP-Glow assay)) EUB0000877a PIK3C3
quantityMeasured: IC50

- CCC(=O)N1CC[C@H](Nc2ncnc3c2CN(c2cnc(OC)c(C(F)(F)F)c2)CC3)C1: > 9.1 µM

###

experimentalTarget: Protein arginine N-methyltransferase 9 (Homo sapiens)
Sequence (Q6P2P2 whole entry): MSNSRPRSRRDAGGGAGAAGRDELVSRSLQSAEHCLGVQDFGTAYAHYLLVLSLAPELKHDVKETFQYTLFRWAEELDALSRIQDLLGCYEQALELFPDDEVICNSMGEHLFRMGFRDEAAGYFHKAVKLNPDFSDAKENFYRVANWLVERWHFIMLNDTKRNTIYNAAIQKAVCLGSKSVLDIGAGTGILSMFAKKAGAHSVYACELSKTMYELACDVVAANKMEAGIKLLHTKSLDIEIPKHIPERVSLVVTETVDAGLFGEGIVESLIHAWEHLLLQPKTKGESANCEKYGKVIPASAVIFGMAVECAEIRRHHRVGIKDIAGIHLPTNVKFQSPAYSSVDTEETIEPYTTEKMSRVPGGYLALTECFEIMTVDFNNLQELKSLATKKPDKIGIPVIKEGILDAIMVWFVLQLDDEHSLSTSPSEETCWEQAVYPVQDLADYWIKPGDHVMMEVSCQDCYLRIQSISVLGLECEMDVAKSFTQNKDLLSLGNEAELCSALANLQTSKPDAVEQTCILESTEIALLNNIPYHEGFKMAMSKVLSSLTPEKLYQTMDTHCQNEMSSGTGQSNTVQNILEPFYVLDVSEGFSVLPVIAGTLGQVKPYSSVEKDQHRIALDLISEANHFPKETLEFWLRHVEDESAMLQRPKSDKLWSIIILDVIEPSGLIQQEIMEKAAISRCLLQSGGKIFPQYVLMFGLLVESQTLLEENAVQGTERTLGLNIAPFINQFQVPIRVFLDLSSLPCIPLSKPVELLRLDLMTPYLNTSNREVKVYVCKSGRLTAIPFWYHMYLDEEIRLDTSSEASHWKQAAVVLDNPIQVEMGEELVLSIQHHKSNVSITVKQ
experimentalProtocol: Selectivity interaction (Scintillation proximity assays) EUB0000230b PRMT9
quantityMeasured: IC50

- CNCCN1CCC(c2cc(CN(C)C(=O)c3cccc(Oc4ccccc4)c3)ccn2)CC1: > 10 µM

###

experimentalTarget: Mitogen-activated protein kinase 9 (Homo sapiens, UniProt P45984)
experimentalProtocol: Selectivity interaction (Enzymatic assay) EUB0001199aCl MAPK9
quantityMeasured: IC50 (µM)

* CN1Cc2nccc(-c3cn(C)nc3-c3ccc(F)cc3)c2C1=O | 4.95

###

experimentalTarget: Protein arginine N-methyltransferase 9 (Homo sapiens)
experimentalProtocol: Selectivity interaction (Scintillation proximity assays) EUB0000255b PRMT9
quantityMeasured: IC50

* COCCN1CCC(c2cc(CN(C)C(=O)c3cccc(Oc4ccccc4)c3)ccn2)CC1 | > 10 µM

###

experimentalTarget: Cyclin-dependent kinase inhibitor 2A (Homo sapiens)
Sequence (P42771 whole entry): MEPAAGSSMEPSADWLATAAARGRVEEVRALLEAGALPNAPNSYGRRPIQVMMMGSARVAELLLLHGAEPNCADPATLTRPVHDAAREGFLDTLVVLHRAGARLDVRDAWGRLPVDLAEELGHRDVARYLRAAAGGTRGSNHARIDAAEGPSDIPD
experimentalProtocol: Selectivity interaction (Kinase panel (33PanQinase(R) Activity Assay)) EUB0000877a CDKN2A
pIC50: −log10 of the molar value.
quantityMeasured: pIC50

• CCC(=O)N1CC[C@H](Nc2ncnc3c2CN(c2cnc(OC)c(C(F)(F)F)c2)CC3)C1 = < 5.00

###

experimentalTarget: Eukaryotic elongation factor 2 kinase (Homo sapiens)
pIC50: −log10 of the molar value.
quantityMeasured: pIC50

- CCc1cccc(CC)c1NC(=O)c1nn(C)c2c1CCc1cnc(Nc3ccc(C(=O)NC4CCN(C)CC4)cc3OC(F)(F)F)nc1-2: < 5.00

###

experimentalTarget: Histamine H3 receptor (Homo sapiens, UniProt Q9Y5N1)
Sequence (Q9Y5N1 whole entry): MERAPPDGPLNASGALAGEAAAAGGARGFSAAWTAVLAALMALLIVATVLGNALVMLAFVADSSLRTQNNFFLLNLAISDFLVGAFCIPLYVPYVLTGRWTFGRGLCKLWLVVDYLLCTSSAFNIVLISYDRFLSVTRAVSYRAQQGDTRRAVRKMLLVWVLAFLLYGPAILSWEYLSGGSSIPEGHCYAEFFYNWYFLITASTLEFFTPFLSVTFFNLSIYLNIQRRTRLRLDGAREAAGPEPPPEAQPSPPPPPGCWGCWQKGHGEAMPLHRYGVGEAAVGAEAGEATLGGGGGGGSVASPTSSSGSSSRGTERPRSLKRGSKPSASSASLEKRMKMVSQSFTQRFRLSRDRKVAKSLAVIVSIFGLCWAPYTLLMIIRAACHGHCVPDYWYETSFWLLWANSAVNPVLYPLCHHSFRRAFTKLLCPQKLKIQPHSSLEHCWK
experimentalProtocol: Selectivity interaction (Human histamine H3 receptor binding assay ) EUB0000877a HRH3
quantityMeasured: IC50

* CCC(=O)N1CC[C@H](Nc2ncnc3c2CN(c2cnc(OC)c(C(F)(F)F)c2)CC3)C1 [LENIOLISIB] | > 30 µM

###

experimentalTarget: Phosphatidylinositol 4-kinase beta (Homo sapiens)
experimentalProtocol: Selectivity interaction (Enzyme panel (AstraZeneca, AlphaScreen, functional assay)) EUB0000621a PI4KB
quantityMeasured: IC50 (nM)

- Cc1cc([C@@H](C)Nc2ccccc2C(=O)O)c2nc(N3CCOCC3)cc(=O)n2c1: 10

###

experimentalTarget: Fibroblast growth factor receptor 3 (Homo sapiens)
Sequence (P22607 whole entry): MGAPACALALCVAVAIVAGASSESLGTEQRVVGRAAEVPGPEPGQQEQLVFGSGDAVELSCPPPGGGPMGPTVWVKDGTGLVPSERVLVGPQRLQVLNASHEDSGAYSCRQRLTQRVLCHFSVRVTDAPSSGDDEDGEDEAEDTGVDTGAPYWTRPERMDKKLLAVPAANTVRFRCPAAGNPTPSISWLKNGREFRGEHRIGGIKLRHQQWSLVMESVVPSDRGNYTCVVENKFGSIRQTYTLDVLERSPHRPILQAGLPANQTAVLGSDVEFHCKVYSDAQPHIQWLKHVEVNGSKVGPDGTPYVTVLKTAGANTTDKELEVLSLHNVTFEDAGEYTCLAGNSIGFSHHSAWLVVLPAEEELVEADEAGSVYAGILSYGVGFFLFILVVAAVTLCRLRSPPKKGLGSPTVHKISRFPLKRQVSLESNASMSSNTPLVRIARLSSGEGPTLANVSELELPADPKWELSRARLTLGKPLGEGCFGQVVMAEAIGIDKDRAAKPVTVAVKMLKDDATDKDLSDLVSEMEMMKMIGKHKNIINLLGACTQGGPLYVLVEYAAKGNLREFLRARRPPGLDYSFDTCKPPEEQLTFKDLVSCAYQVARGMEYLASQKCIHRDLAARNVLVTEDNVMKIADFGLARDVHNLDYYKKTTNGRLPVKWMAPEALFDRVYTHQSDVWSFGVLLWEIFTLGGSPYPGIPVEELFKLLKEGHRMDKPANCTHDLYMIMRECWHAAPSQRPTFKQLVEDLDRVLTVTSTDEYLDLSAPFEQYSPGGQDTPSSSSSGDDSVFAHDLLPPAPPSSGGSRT
experimentalProtocol: Selectivity interaction (Kinase panel (33PanQinase(R) Activity Assay)) EUB0000877a FGFR3
pIC50: −log10 of the molar value.
quantityMeasured: pIC50

• CCC(=O)N1CC[C@H](Nc2ncnc3c2CN(c2cnc(OC)c(C(F)(F)F)c2)CC3)C1 [LENIOLISIB] = < 5.00

###

experimentalTarget: Mitogen-activated protein kinase 15 (Homo sapiens, UniProt Q8TD08)
Sequence (Q8TD08 whole entry): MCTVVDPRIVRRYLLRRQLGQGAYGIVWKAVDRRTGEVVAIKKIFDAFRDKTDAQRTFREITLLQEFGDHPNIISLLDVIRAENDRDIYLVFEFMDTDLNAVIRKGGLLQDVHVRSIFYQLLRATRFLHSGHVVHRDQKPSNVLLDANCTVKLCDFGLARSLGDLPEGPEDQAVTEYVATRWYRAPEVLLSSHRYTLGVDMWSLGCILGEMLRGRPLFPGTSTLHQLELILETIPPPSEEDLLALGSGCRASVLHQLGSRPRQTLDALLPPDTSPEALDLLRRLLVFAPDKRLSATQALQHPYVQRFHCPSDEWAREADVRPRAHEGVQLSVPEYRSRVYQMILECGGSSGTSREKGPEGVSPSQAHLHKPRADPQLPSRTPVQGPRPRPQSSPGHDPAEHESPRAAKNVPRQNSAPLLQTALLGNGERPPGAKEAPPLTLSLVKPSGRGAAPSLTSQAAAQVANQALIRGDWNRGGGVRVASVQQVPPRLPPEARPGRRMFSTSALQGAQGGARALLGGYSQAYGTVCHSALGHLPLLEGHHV
experimentalProtocol: Selectivity interaction (KinomeScan (DiscoverX, competition binding assay)) EUB0001547a MAPK15
pKd: −log10 of the molar value.
quantityMeasured: pKd

- N[C@@H]1CCCN(c2c(/C=C3\SC(=O)NC3=O)cccc2-c2ccccc2)C1: 8.30

###

experimentalTarget: Muscarinic acetylcholine receptor M3 (Homo sapiens)
experimentalProtocol: Selectivity interaction (Muscarinic M3 receptor assay, human recombinant ) EUB0000877a CHRM3
quantityMeasured: IC50

- CCC(=O)N1CC[C@H](Nc2ncnc3c2CN(c2cnc(OC)c(C(F)(F)F)c2)CC3)C1 [LENIOLISIB]: > 30 µM

###

experimentalTarget: RAC-alpha serine/threonine-protein kinase (Homo sapiens)
Sequence (P31749 whole entry): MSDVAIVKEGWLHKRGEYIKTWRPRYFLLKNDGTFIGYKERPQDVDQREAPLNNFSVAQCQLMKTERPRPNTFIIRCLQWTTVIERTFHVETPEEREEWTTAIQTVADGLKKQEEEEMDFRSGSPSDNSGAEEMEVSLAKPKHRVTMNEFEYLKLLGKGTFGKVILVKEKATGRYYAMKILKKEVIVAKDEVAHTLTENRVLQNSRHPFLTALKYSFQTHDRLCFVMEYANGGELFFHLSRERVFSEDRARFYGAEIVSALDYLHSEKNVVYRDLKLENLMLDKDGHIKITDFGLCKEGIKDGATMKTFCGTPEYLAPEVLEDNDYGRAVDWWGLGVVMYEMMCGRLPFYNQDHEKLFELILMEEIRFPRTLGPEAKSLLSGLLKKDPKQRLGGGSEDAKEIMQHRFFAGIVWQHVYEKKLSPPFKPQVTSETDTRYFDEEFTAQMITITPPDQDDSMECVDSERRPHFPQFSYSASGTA
quantityMeasured: IC50

- CCc1cccc(CC)c1NC(=O)c1nn(C)c2c1CCc1cnc(Nc3ccc(C(=O)NC4CCN(C)CC4)cc3OC(F)(F)F)nc1-2: > 10 µM

###

experimentalTarget: Receptor-type tyrosine-protein kinase FLT3 (Homo sapiens, UniProt P36888)
Sequence (P36888 whole entry): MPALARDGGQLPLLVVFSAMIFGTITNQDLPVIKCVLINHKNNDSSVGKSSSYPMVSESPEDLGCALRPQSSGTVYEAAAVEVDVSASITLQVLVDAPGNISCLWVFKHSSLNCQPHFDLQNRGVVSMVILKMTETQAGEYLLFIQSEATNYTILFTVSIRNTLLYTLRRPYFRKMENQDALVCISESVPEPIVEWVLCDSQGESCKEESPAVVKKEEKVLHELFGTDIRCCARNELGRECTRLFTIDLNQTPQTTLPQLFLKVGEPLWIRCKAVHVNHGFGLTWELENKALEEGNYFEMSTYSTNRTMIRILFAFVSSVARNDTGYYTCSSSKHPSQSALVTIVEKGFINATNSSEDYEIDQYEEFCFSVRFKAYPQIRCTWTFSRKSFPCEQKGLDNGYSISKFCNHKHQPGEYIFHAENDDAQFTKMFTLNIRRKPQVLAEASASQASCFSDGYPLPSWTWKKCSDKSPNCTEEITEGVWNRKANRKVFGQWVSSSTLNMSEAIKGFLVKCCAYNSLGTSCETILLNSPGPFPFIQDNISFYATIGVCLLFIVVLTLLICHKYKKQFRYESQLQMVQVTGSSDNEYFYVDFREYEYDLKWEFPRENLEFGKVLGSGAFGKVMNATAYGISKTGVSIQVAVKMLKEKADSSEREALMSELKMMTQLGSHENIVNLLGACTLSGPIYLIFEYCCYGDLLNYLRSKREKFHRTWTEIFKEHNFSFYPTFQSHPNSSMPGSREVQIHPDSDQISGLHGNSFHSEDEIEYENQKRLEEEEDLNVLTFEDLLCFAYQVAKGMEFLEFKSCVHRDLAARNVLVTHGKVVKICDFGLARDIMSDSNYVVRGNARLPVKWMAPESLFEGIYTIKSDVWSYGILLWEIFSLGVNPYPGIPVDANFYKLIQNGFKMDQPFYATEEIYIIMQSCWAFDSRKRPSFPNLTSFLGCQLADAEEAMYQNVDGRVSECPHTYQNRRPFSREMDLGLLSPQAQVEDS
experimentalProtocol: Selectivity interaction (Kinase panel (Invitrogen, enzymatic assay)) EUB0000162b FLT3
pIC50: −log10 of the molar value.
quantityMeasured: pIC50

* CN(C)C(=O)Cn1cc(-c2ccc(-c3cncc4ccccc34)cc2)cn1 | 5.87

###

experimentalTarget: Mitogen-activated protein kinase kinase kinase kinase 4 (Homo sapiens)
experimentalProtocol: Selectivity interaction (Radiometric assay (Reaction Biology)) EUB0000121b MAP4K4
pIC50: −log10 of the molar value.
quantityMeasured: pIC50

- COc1ccccc1-c1cc(Nc2cccc(CS(N)(=O)=O)c2)ncn1: 6.09

###

experimentalTarget: Mitogen-activated protein kinase kinase kinase 8 (Homo sapiens)
experimentalProtocol: Selectivity interaction (Kinase panel (33PanQinase(R) Activity Assay)) EUB0000877a MAP3K8
quantityMeasured: IC50

* CCC(=O)N1CC[C@H](Nc2ncnc3c2CN(c2cnc(OC)c(C(F)(F)F)c2)CC3)C1 | > 10 µM
